Values from PubChem BioAssay

measurement notes: E. coli growth modulation, two-sided OD650, primary screen, E. coli filamentation project, strain DRC41, 24 h (AID 1093);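 note: MC1000 strain lacking acrAB efflux and sulA so SOS filamentation is blocked; test concentration not given here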
condition details: OD650, 24 h, higher = more signal, called active from +8 up or from −8 down
readout type: z-score
Output: the number by itself.

Data point: COC(=O)[C@H]1COC(c2ccc(OCCCO)cc2)=N1 ; z-score = 0.332

The reported value for Cc1ccc(S[C@]2(C(=O)NCC(F)(F)F)CC(=O)N(Cc3ccccc3Cl)[C@@H]2c2ccc(CO)cc2I)cc1 in terms of z-score is 0.492

molecule COC(=O)C1=C(C)N(Cc2ccccc2)[C@]23O[C@](C(=O)OC)(C(=O)N2[C@@H]1c1ccccc1)[C@H]1CCOC(=O)[C@H]13 , z-score observed: 0.308

Entry O=C(NN=C1C[C@@H](O)[C@@H](O)[C@@H]2[C@@H]3C(=O)N(c4ccc(F)cc4F)C(=O)[C@@H]3CC[C@@H]12)OCc1ccccc1 — recorded z-score = 0.203

The molecule listed as CO[C@H]1COC(=O)[C@@H]2CCCN2C(=O)[C@@H](C)COC(=O)CC=C[C@@H]1C has a reported z-score of 0.264

In plain terms, O=C1[C@H]2[C@H]3[C@H](O)[C@H](O)CC(=NOCc4ccccc4)[C@H]3CC[C@H]2C(=O)N1C[C@@H]1CCCO1 has a documented z-score of 0.0096

# z-score of NCCCCCNC(=O)[C@@H]1C[C@@H]2C(=O)N3CCC[C@H]3C(=O)N2[C@@H]1c1cccc(OCCO)c1 = -0.104

* * *

measurement notes: small-molecule microarray binders of probe aXIP, primary screen, biochemical, NeuroSMM set, 635/667 nm fluorescence (AID 1119);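 note: probe is the protein aXip251-270 applied at 1 µg/mL to compound-printed slides; binding of probe to printed compounds measured as 667 nm fluorescence plus signal to noise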
condition details: higher = more signal, called active from +8 up or from −8 down
Use 0.3 as the dividing line for composite Z-score, with the line itself on the label 1 side and lower values as label 0.

Reference set, count: 5
- molecule: "CC(C)NC(=O)[C@@]1(c2ccc([N+](=O)[O-])cc2)CC(=O)N(CC23CC4CC(CC(C4)C2)C3)[C@@H]1c1ccc(CO)cc1I"
  assigned label: "label 1"
- molecule: "CCOC(=O)CCN1C(=O)[C@H]2[C@H]3[C@H](O)[C@H](O)CC(=NOC[C@@H](O)COCc4ccco4)[C@H]3CC[C@H]2C1=O"
  assigned label: "label 0"
- molecule: "O=C1[C@H]2[C@H]3[C@H](O)[C@H](O)CC(=NO[C@@H]4O[C@H](CO)[C@@H](O)[C@H](O)[C@H]4O)[C@H]3CC[C@H]2C(=O)N1Cc1ccccc1"
  assigned label: "label 0"
- molecule: "COC(=O)CC=C[C@@H](C)[C@@H](C=NO[C@@H](C)c1cc(-c2c(C)cc(C)cc2C)no1)OC"
  assigned label: "label 0"
- molecule: "CCOC(=O)NN=C1C[C@@H](O)[C@@H](O)[C@@H]2[C@@H]3C(=O)N(C(C)(C)C)C(=O)[C@@H]3CC[C@@H]12"
  assigned label: "label 0"

[ask] Would you say CC(C)=NOCc1ccc(-c2cc(-c3ccccc3)no2)cc1 shows composite Z-score at minimum 0.3?
[reply] label 0

[ask] hey, is composite Z-score for this one >= 0.3? CCOC(=O)[C@H](Cc1ccccc1)NC(=O)CCC1CC(OC(=O)NCc2ccc3c(c2)OCO3)CC2(CCCC(COC(=O)NCc3cccc(C(F)(F)F)c3)O2)O1 (some centres not stated)
[reply] label 0

[ask] Reported composite Z-score at or above 0.3? CN1C(=O)C2C=CC(C(O)c3ccc(Br)cc3)N(N(c3ccccc3)c3ccccc3)C2C1=O (configuration not stated)
[reply] label 1

[ask] Item C[C@H]1CC[C@@H](C(=O)O)N[C@@H]1c1ccc(C#CCN(C)C)cc1 with composite Z-score of 0.3 or above?
[reply] label 0

[ask] Hi team, for O[C@@H](Cc1ccccc1)[C@H]1C2C=CCCC(c3ccccc3)=C2CN1Cc1cccc(Cl)c1 (some centres not stated) , is the recorded composite Z-score at or above 0.3?
[reply] label 0

[ask] Given CC(C)=CCCC(C)=CCON=C1C[C@@H](O)[C@@H](O)[C@@H]2[C@@H]3C(=O)N(C[C@@H]4CCCO4)C(=O)[C@@H]3CC[C@@H]12 , state whether its composite Z-score is at least 0.3.
[reply] label 1

[ask] Has C[C@@H]1C=CCC(=O)OC[C@H](C)C(=O)N[C@@H](C)C(=O)OC1 a recorded composite Z-score greater than or equal to 0.3?
[reply] label 0

[ask] Please check the record O=C1[C@H]2[C@H]3[C@H](O)[C@H](O)CC(=NOCc4ccccc4)[C@@H]3CC[C@H]2C(=O)N1Cc1ccccc1 and state if its composite Z-score is at or above 0.3.
[reply] label 0

[ask] Has COc1ccc(CCNC(=O)[C@@H]2c3ccccc3C(=O)N(c3ccc(C)cn3)[C@H]2c2ccc(CO)cc2)cc1 a recorded composite Z-score greater than or equal to 0.3?
[reply] label 1

[ask] Check the entry Cc1cc2c(nc1C)CCCN2CC(O)CN1CCN(C)CC1 (configuration not stated) : does composite Z-score equal or exceed 0.3?
[reply] label 1

[ask] Is reported composite Z-score greater than or equal to 0.3 here: CCc1cccc(NC(=O)O[C@H]2[C@H](OC(=O)Nc3ccc4c(c3)OCO4)[C@@H](OC(=O)Nc3ccc4c(c3)OCO4)[C@@H](OC)O[C@@H]2CO)c1
[reply] label 0

[ask] Threshold query (composite Z-score >= 0.3) on COc1ccc(O[C@H]2C=C[C@@H](c3ccccc3)O[C@@H]2COC(=O)N2CCCCC2)cc1
[reply] label 0

[ask] # check: composite Z-score of CC(C)C[C@@H]1NC(=O)[C@H]2C[C@@H](C(=O)NCCCCCCN(C)C)[C@@H](c3cccc(OCCO)c3)N2C1=O is greater than or equal to 0.3
[reply] label 1

[ask] Threshold query (composite Z-score >= 0.3) on CN(C)CCCNC(=O)[C@@H]1c2ccccc2C(=O)N(Cc2ccccc2)[C@H]1c1ccc(CO)cc1
[reply] label 1

[ask] Could you tell me if the measured composite Z-score of O=C1C[C@@H](O)[C@@H](O)[C@@H]2[C@@H]3C(=O)N(Cc4ccc5c(c4)OCO5)C(=O)[C@@H]3CC[C@@H]12 reaches 0.3 or more?
[reply] label 1

[ask] I'd appreciate it if you could say whether CC(C)[C@@H](OCc1ccccc1)[C@H](C)C=NOC[C@@H](C)[C@H](OCc1ccccc1)C(C)C has composite Z-score at least equal to 0.3.
[reply] label 0

[ask] Quick check: does CCOc1ccc(N2C(=O)/C(=C/C=C/c3ccccc3OC)S(=O)(=O)C2c2cccc([N+](=O)[O-])c2)cc1 (configuration not stated) have composite Z-score greater than or equal to 0.3?
[reply] label 0
